This collection of values is drawn from patent US12421249B2.

- target.or.test.system: APOL1 G1 (Homo sapiens, UniProt O14791, I384M/S342G)
- Sequence (O14791 28-398 S342G/I384M): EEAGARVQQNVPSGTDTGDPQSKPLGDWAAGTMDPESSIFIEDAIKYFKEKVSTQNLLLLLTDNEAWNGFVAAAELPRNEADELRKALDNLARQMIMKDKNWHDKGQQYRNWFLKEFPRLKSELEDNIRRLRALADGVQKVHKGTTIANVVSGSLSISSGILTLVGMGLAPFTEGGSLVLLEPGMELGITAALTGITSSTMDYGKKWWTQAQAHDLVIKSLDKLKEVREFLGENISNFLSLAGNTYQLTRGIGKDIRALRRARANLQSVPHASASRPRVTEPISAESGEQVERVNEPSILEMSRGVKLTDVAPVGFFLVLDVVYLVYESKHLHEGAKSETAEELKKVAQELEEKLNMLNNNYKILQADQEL
- protocol.text: Trypanosoma brucei brucei Lysis Assay Using APOL1 Recombinant Protein (AlamarBlue viability readout)
- Assay type: cell-based
- measurement.context: Trypanosome Assay; IP50 = IC50 for cell proliferation; read-out: Trypanosome Assay IP50
endpoint.label: IC50

Previously resolved entries follow.
compound	IC50
C[C@H]1C[C@@]2(C[C@@H](c3cccc(=O)[nH]3)N1)OCCc1cc(Cl)sc12 (racemic) [Compound 151]	> 500 nM
C[C@H]1C[C@@]2(C[C@@H](c3ccc(C(=O)NC4CC4)cc3)N1)OCCc1cc(Cl)sc12 (racemic) [Compound 71]	< 50 nM
Cc1n[nH]c2ncc([C@@H]3C[C@]4(C[C@H](C)N3)OCCc3cc(Cl)sc34)cc12 (racemic) [Compound 48]	< 50 nM
COc1ccc([C@@H]2C[C@]3(C[C@H](C)N2)OCCc2cc(Cl)sc23)cc1O (racemic) [Compound 99]	< 50 nM
C[C@H]1C[C@@]2(C[C@@H](c3cn(CC(N)=O)nn3)N1)OCCc1cc(Cl)sc12 (racemic) [Compound 133]	50 to 500 nM
C[C@H]1C[C@@]2(C[C@@H](c3cn(C)c(=O)n(C)c3=O)N1)OCCc1cc(Cl)sc12 (racemic) [Compound 124]	50 to 500 nM

From here, focus on the item given below.
Per the records, this compound ( C[C@H]1C[C@@]2(C[C@@H](c3c[nH]nn3)N1)OCCc1cc(Cl)sc12 (racemic) [Compound 72] ) has IC50 equal to < 50 nM

###

- target.or.test.system: UniProt:O14791
- protocol.text: Multi-Tox Assay (MultiTox-Fluor Multiplex Cytotoxicity Assay in tet-inducible APOL1 T-REx-HEK293 cells; Table 46 does not say which APOL1 variant G0/G1/G2)
- Type: cell-based
- measurement.context: APOL1 variant not given
Catalogue of Multi-Tox Assay Max Activity (%) readings, one per entry.
The reply must contain the numeric value and, after it, the unit.

compound	endpoint.label	data.value
CC(=O)Nc1cccc([C@@H]2C[C@]3(C[C@H](C)N2)OCCc2cc(Cl)sc23)c1 (racemic) [Compound 113]	Multi-Tox Assay Max Activity (%)	100.0%
Cc1nc(Cn2cc([C@@H]3C[C@]4(C[C@H](C)N3)OCC(F)(F)c3cc(Cl)sc34)nn2)oc1C [Compound 337]	Multi-Tox Assay Max Activity (%)	99.0%
Cc1cc(Cn2cc([C@@H]3C[C@]4(C[C@H](C)N3)OC[C@@H](O)c3cc(Cl)sc34)nn2)ccn1 [Compound 296]	Multi-Tox Assay Max Activity (%)	99.0%
C[C@H]1C[C@@]2(C[C@@H](c3cn(CC4CCOC4)nn3)N1)OCC(F)(F)c1cc(Cl)sc12 (stereo partly shown) [Compound 311]	Multi-Tox Assay Max Activity (%)	99.0%
Cc1cccc(OCC(O)Cn2cc([C@@H]3C[C@]4(C[C@H](C)N3)OCC(F)(F)c3cc(Cl)sc34)nn2)c1 (stereo partly shown) [Compound 303]	Multi-Tox Assay Max Activity (%)	99.0%

Response field Multi-Tox Assay Max Activity (%) (UniProt:O14791) for item C[C@H]1C[C@@]2(C[C@@H](c3cn(CC4(CO)CC4)nn3)N1)OCC(F)(F)c1cc(Cl)sc12 [Compound 357] : 99.0%

Response field Multi-Tox Assay Max Activity (%) (UniProt:O14791) for item C[C@H]1C[C@@]2(C[C@@H](c3ccnc(O)c3)N1)OCCc1cc(Cl)sc12 (racemic) [Compound 112] : 100.0%

###

- target.or.test.system: APOL1 G1 (Homo sapiens, UniProt O14791, I384M/S342G)
- protocol.text: Trypanosoma brucei brucei Lysis Assay Using APOL1 Recombinant Protein (AlamarBlue viability readout)
- Format: cell-based
- measurement.context: Trypanosome Assay; read-out: Trypanosome Assay Max Activity (%)
- Text: Trypanosoma brucei brucei is a blood stream parasite to which human, gorillas, and baboons are immune due to the presence of the APOL1 protein in their HDL particles. […] Briefly, the AlamarBlue active compound, resazurin, a blue, water soluble, non-toxic and cell permeable molecule, which can be followed by absorbance, is reduced by various metabolic pathways into resorufin, a red compound which can be followed by either absorbance or fluorescence. […]
endpoint.label: Emax (%)
Numbers only; they are read as %.

Previously resolved entries follow.
compound	endpoint.label	units.label	data.value
C[C@H]1C[C@@]2(C[C@@H](c3cnc4c(cnn4C)c3)N1)OCCc1cc(Cl)sc12 (racemic)	Emax	%	110
C[C@H]1C[C@@]2(C[C@@H](c3ccnc(N(C)C)n3)N1)OCCc1cc(Cl)sc12 (racemic)	Emax	%	107
Cc1nc[nH]c1[C@@H]1C[C@]2(C[C@H](C)N1)OCCc1cc(Cl)sc12 (racemic)	Emax	%	73

From here, focus on the item given below.
Per the records, this compound ( CCOc1ccc([C@@H]2C[C@]3(C[C@H](C)N2)OCCc2cc(Cl)sc23)nc1 (racemic) ) has Emax equal to 110

###

- target.or.test.system: APOL1 G1 (Homo sapiens, UniProt O14791, I384M/S342G)
- protocol.text: Trypanosoma brucei brucei Lysis Assay Using APOL1 Recombinant Protein (AlamarBlue viability readout)
- Type: cell-based
- measurement.context: Trypanosome Assay; read-out: Trypanosome Assay Max Activity (%)
Catalogue of Emax readings, one per entry.
Numbers only; they are read as %.

Previously resolved entries follow.
compound	units.label	data.value
C[C@H]1C[C@@]2(C[C@@H](c3cnc(C4CCOCC4)o3)N1)OCCc1cc(Cl)sc12 (racemic)	%	102
Cc1nc([C@@H]2C[C@]3(C[C@H](C)N2)OCCc2cc(Cl)sc23)[nH]c1C (racemic)	%	87

Response field Emax (APOL1 G1 (Homo sapiens, UniProt O14791, I384M/S342G)) for item Cc1ccc([C@@H]2C[C@]3(C[C@H](C)N2)OCCc2cc(Cl)sc23)nn1 (racemic) : 100

Response field Emax (APOL1 G1 (Homo sapiens, UniProt O14791, I384M/S342G)) for item C[C@H]1C[C@@]2(C[C@@H](c3ncnn3C)N1)OCCc1cc(Cl)sc12 (racemic) : 14

Response field Emax (APOL1 G1 (Homo sapiens, UniProt O14791, I384M/S342G)) for item CNC(=O)c1ccc(C2CC3(CC(C)N2)OCCc2cc(Cl)sc23)cc1 (stereo not shown) : 112

Response field Emax (APOL1 G1 (Homo sapiens, UniProt O14791, I384M/S342G)) for item COc1ccc(C2CC3(CC(C)N2)OCCc2cc(Cl)sc23)nn1 (mixture of isomers) : 106

Response field Emax (APOL1 G1 (Homo sapiens, UniProt O14791, I384M/S342G)) for item Cc1cccc([C@@H]2C[C@]3(C[C@H](C)N2)OCCc2cc(Cl)sc23)n1 (racemic) : 115

###

- target.or.test.system: APOL1 G1 (Homo sapiens, UniProt O14791, I384M/S342G)
- Sequence (O14791 28-398 S342G/I384M): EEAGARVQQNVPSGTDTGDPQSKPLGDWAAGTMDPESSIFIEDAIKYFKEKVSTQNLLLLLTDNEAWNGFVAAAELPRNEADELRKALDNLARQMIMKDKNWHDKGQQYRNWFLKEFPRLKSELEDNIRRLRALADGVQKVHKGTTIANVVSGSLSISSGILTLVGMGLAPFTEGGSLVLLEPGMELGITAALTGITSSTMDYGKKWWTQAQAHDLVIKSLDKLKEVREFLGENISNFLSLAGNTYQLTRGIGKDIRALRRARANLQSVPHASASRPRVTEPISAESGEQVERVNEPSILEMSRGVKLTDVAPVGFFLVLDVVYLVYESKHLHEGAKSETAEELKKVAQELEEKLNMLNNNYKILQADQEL
- protocol.text: Trypanosoma brucei brucei Lysis Assay Using APOL1 Recombinant Protein (AlamarBlue viability readout)
- Assay type: cell-based
- measurement.context: Trypanosome Assay; IP50 = IC50 for cell proliferation; read-out: Trypanosome Assay IP50
- Excerpt: Trypanosoma brucei brucei is a blood stream parasite to which human, gorillas, and baboons are immune due to the presence of the APOL1 protein in their HDL particles. […] Briefly, the AlamarBlue active compound, resazurin, a blue, water soluble, non-toxic and cell permeable molecule, which can be followed by absorbance, is reduced by various metabolic pathways into resorufin, a red compound which can be followed by either absorbance or fluorescence. […]
pIC50: −log10 of the molar value.
Catalogue of pIC50 readings, one per entry.

Previously resolved entries follow.
molecule	target.or.test.system	pIC50
CCOc1ccc([C@@H]2C[C@]3(C[C@H](C)N2)OCCc2cc(Cl)sc23)nc1 (racemic)	APOL1 G1 (Homo sapiens, UniProt O14791, I384M/S342G)	> 7.30
C[C@H]1C[C@@]2(C[C@@H](c3cn(C)nn3)N1)OCCc1c2sc(C(F)(F)F)c1CO	APOL1 G1 (Homo sapiens, UniProt O14791, I384M/S342G)	6.30 to 7.30
C[C@H]1C[C@@]2(C[C@@H](c3cn(C)nn3)N1)OC[C@@H](O)c1sc(Cl)cc12	APOL1 G1 (Homo sapiens, UniProt O14791, I384M/S342G)	> 7.30
[2H]C1([2H])O[C@@]2(C[C@@H](c3cn(C)nn3)N[C@@H](C)C2)c2sc(Cl)cc2[C@]1([2H])O	APOL1 G1 (Homo sapiens, UniProt O14791, I384M/S342G)	> 7.30

Per the records, this molecule ( C[C@H]1CC2(C[C@@H](c3cn(C)nn3)N1)OCCc1sc(Cl)cc12 (single isomer, unassigned) ) has pIC50 equal to > 7.30
